Cited source for all entries: PubChem BioAssay AID743320

# target of assay: Endoplasmic reticulum aminopeptidase 2 (Homo sapiens) (UniProt Q6P179)
# Sequence (Q6P179 whole entry, looked up): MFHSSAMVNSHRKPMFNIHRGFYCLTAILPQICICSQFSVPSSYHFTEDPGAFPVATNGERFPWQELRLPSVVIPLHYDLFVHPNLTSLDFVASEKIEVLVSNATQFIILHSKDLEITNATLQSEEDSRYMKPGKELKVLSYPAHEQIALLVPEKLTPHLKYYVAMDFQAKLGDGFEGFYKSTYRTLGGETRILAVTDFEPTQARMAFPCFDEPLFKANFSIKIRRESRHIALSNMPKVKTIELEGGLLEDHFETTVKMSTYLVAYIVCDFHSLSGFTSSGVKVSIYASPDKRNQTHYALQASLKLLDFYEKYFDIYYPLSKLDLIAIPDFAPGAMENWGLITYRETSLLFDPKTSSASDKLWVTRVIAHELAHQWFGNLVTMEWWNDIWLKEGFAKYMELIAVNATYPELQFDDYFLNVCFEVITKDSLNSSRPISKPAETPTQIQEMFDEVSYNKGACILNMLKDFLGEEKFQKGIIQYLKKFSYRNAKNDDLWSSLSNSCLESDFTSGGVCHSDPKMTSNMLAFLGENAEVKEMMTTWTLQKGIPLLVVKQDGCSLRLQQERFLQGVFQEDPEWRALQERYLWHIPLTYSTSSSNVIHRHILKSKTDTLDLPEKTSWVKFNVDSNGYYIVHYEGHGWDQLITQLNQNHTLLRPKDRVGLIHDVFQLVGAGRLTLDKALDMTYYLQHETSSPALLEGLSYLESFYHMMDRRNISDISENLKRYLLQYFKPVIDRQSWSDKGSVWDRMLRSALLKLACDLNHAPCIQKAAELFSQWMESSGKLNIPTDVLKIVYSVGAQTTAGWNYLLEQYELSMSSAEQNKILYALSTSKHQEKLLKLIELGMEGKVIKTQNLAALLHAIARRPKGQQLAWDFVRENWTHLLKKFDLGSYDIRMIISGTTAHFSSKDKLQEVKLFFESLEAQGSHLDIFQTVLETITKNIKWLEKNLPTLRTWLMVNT
# assay overview: inhibition of ERAP2 arginine-AMC cleavage – biochemical, fluorescence plate reader, cherry-picked, set 2, selectivity assay for selective ERAP1 modulator project, dose response (AID 743320)
# condition context: recombinant ERAP2, Arg-AMC fluorescence, 1 h; series mostly up to 11 µM
Results with a measured potency or affinity are listed apart. Activity calls are given as the source filed them.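 Rule for the calls: active = signal drop whose fitted half-maximal potency is at most twice the top valid dose tested; inconclusive = flat curve inhibiting 30 to 70 percent, or a poor fit; inactive = the rest.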
reported property: activity change, negative = inhibition

smiles data	target of assay	recorded result
COc1ccc(S(=O)(=O)N(C)C[C@@H]2Oc3ncccc3C(=O)N([C@H](C)CO)C[C@@H]2C)cc1	Endoplasmic reticulum aminopeptidase 2 (Homo sapiens) (UniProt Q6P179)	inactive
Cc1noc(C)c1S(=O)(=O)Nc1ccc2c(c1)C(=O)N([C@H](C)CO)C[C@H](C)[C@H](CN(C)Cc1ccc3c(c1)OCO3)OCCCC[C@@H](C)O2	Endoplasmic reticulum aminopeptidase 2 (Homo sapiens) (UniProt Q6P179)	inactive
Cc1noc(C)c1S(=O)(=O)N(C)C[C@@H]1OCCCC[C@@H](C)Oc2ccc(NS(=O)(=O)c3cccs3)cc2C(=O)N([C@@H](C)CO)C[C@@H]1C	Endoplasmic reticulum aminopeptidase 2 (Homo sapiens) (UniProt Q6P179)	inactive
CCCNC(=O)C[C@@H]1CC[C@@H]2[C@H](COC[C@H](O)CN2C(=O)Nc2cccc(Cl)c2)O1	Endoplasmic reticulum aminopeptidase 2 (Homo sapiens) (UniProt Q6P179)	inactive

---

# target of assay: Endoplasmic reticulum aminopeptidase 2 (Homo sapiens) (UniProt Q6P179)
# assay overview: inhibition of ERAP2 arginine-AMC cleavage – biochemical, fluorescence plate reader, cherry-picked, set 2, selectivity assay for selective ERAP1 modulator project, dose response (AID 743320)
# condition context: recombinant ERAP2, Arg-AMC fluorescence, 1 h; series mostly up to 11 µM
Results with a measured potency or affinity are listed apart. Calls of active or inactive are those of the source.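 How the source made its calls: active means signal drop whose fitted half-maximal potency is at most twice the top valid dose tested; inconclusive means flat curve inhibiting 30 to 70 percent, or a poor fit; inactive means the rest.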
reported property: activity change, negative = inhibition

Here are 4 compounds together with their reported answers.
smiles data	activity change, negative = inhibition
Cc1noc(C)c1S(=O)(=O)Nc1ccc2c(c1)C(=O)N([C@H](C)CO)C[C@@H](C)[C@@H](CN(C)CC1CCCCC1)OCCCC[C@@H](C)O2	inactive
C[C@H]1CN([C@@H](C)CO)C(=O)c2cccc(NC(=O)Nc3ccc(F)cc3)c2O[C@@H]1CN(C)C(=O)Nc1ccc2c(c1)OCO2	inactive
COc1ccc(CN(C)C[C@H]2OCCCC[C@@H](C)Oc3ccc(NS(=O)(=O)c4cccs4)cc3C(=O)N([C@H](C)CO)C[C@H]2C)cc1	inactive
C[C@@H]1CCCCO[C@@H](CN(C)C)[C@@H](C)CN([C@@H](C)CO)C(=O)c2cc(NS(=O)(=O)c3ccc(F)cc3)ccc2O1	inactive

query: Form: Entry = `C[C@H](CO)N1C[C@H](C)[C@H](CN(C)Cc2ccc(C(=O)O)cc2)Oc2c(NC(=O)Nc3ccccc3)cccc2C1=O` | System = Endoplasmic reticulum aminopeptidase 2 (Homo sapiens) (UniProt Q6P179) | activity change, negative = inhibition = ____
result: inactive

query: Then `COc1ccc(NC(=O)Nc2ccc3c(c2)C(=O)N([C@@H](C)CO)C[C@@H](C)[C@H](CN(C)Cc2ccc(C(=O)O)cc2)OCCCC[C@H](C)O3)cc1` ?
result: inactive
